Molecular target: Bromodomain-containing protein 4 (Homo sapiens)
Assay: Inhibition of N-terminal His-tagged BRD4 (BD1) (unknown origin) using biotinylated tetra-acetylated histone H4 peptide after 4 hrs by alpha-screen assay
Reported pIC50 values are given for each entry in this list.
Hey, just a heads up that pIC50 is the negative log base 10 of the concentration in molar.

compound	pIC50
Cc1noc(C)c1-c1cc(N)c2ncn(Cc3ccc(C4CO4)cc3)c2c1 (configuration not stated)	7.82

Shift focus to the following entry.
Return the recorded pIC50 value; entry: `Cc1noc(C)c1-c1cc(N)c2ncn(Cc3ccccc3)c2c1`
7.72

Just for reference, ChEMBL document CHEMBL4229554 is where these values come from.
